- assay-target: T1, AnkB 28–847 (MBD + partial AI-c) (human, UniProt Q01484-2 28-847)
- T1 chain: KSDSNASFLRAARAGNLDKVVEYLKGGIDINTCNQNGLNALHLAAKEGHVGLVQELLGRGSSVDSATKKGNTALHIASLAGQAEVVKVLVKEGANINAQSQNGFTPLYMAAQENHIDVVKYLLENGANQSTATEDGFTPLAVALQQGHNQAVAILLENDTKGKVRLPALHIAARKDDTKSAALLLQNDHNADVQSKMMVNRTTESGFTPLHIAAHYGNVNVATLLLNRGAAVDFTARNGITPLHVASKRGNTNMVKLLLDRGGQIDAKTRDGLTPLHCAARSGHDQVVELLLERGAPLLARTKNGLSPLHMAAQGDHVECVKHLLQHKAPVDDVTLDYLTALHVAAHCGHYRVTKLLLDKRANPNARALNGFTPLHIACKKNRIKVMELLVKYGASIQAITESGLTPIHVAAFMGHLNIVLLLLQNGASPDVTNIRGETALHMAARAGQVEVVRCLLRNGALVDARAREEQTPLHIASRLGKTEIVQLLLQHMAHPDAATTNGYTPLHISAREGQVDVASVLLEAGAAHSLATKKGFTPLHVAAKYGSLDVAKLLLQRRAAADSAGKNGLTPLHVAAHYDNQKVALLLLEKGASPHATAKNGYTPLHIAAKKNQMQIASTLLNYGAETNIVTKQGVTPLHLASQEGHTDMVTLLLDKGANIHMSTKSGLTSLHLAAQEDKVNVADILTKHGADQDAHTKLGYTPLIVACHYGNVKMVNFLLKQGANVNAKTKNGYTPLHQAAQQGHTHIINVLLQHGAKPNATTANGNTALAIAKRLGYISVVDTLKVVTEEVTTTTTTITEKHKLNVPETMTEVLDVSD
- protocol-notes: ITC; AnkB 874-965
readout-name: pKd
# log scale: pKd equals minus log10 of the concentration in mol/L

Task: Name the reported pKd value associated with the binder SLPSSQFLDGMNYLRYSLEGGRS (domain or fragment) [AnkB AI-b fragment with residues 865 to 873 deleted]
Output: 4.77
